molecular target: IKZF2 (Homo sapiens, UniProt Q96SW2+Q9UKS7); construct: expressed in transfected cells; experiment: HiBiT protein tagging assay, in vitro IKZF2 degradation (HEK293); type: cell-based; settings: HiBiT assay, HEK293, 18-24 hr incubation, normalized to DMSO control; read-out: IKZF2 EC50
Sequence (Q9UKS7 1-500 isoform Q9UKS7-2): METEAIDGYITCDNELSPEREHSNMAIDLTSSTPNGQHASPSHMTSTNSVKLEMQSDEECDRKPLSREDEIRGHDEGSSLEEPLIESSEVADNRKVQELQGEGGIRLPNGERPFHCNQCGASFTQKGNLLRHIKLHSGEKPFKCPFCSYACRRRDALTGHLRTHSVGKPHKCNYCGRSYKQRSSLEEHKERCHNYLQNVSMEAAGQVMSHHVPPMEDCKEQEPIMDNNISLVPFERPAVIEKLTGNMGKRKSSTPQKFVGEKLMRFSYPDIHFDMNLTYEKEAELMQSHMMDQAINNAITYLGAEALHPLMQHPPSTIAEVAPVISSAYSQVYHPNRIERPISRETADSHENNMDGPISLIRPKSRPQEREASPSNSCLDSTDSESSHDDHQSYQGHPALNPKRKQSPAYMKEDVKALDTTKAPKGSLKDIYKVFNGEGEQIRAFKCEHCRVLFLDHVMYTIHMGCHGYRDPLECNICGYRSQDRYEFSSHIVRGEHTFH
Sequence (Q96SW2 whole entry): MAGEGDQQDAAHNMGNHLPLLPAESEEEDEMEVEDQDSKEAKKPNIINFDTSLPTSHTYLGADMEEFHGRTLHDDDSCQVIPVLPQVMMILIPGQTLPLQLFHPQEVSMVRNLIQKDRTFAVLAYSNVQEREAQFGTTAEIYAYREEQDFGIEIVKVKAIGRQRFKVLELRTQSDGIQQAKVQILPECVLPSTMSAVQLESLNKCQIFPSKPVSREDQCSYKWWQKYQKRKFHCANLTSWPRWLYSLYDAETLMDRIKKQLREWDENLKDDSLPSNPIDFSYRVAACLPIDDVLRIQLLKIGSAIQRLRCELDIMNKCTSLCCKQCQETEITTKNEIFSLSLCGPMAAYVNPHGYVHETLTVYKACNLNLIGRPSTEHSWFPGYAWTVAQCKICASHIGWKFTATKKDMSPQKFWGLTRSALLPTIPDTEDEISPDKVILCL
Sequence (Q16531 whole entry partner): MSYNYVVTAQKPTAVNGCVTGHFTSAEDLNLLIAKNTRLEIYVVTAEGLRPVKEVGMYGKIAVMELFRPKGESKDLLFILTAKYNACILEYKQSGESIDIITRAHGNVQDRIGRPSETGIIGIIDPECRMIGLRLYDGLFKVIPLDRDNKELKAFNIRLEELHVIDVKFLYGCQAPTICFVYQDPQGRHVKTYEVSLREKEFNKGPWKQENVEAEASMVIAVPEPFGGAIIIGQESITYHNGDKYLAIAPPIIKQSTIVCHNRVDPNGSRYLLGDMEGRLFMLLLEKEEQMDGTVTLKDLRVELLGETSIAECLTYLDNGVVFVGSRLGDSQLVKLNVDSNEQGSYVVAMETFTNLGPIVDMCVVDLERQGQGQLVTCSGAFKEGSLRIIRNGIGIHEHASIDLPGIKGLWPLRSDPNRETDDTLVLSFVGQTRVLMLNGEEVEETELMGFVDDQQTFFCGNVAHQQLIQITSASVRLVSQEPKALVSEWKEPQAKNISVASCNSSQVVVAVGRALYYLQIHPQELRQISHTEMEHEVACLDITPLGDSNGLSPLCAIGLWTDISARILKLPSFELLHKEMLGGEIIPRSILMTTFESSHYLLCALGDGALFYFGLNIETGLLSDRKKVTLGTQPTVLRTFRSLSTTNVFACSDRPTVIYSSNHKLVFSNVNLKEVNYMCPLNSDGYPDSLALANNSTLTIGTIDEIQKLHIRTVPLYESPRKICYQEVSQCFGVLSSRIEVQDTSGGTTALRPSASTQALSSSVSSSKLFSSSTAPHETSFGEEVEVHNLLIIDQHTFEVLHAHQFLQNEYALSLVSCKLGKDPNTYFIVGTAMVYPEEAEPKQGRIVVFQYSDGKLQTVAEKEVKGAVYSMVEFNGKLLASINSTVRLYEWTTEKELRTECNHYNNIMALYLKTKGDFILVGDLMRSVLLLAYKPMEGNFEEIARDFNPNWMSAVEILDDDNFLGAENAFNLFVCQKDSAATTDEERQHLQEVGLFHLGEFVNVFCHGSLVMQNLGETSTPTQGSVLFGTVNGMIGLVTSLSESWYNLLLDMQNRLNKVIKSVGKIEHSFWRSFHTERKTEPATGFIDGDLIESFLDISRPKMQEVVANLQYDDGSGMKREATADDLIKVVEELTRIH
Threshold 400 nM. DC50 below it: Satisfied. DC50 at it or above: Not satisfied.

{"columns": ["molecule", "qualitativeLabel"],
 "data": [
  ["O=C1CCC(N2Cc3cc(CN[C@@H]4CCCN(Cc5ccc(Cl)cc5)C4)ccc3C2=O)C(=O)N1 (stereo partly drawn)", "Satisfied"],
  ["O=C1CCC(N2Cc3cc(CNCCCO)ccc3C2=O)C(=O)N1 (stereo not drawn)", "Not satisfied"],
  ["O=C1CCC(N2Cc3cc(CNC4CCCC5(CC5)C4)ccc3C2=O)C(=O)N1 (stereo not drawn)", "Satisfied"],
  ["O=C1CCC(N2Cc3cc(CNC4CCc5cccnc5C4)ccc3C2=O)C(=O)N1 (stereo not drawn)", "Satisfied"],
  ["O=C1CCC(N2Cc3cc(CNC4CCN(Cc5ccccc5)C(=O)C4)ccc3C2=O)C(=O)N1 (stereo not drawn) [Example 62]", "Not satisfied"]
]}

In the record for O=C1CCC(N2Cc3cc(CNC4CCN(c5ccncc5)CC4)ccc3C2=O)C(=O)N1 (stereo not drawn) , is DC50 less than 400 nM?
Not satisfied

Is 400 nM strictly greater than the molecule's reported DC50? molecule: O=C1CCC(N2Cc3cc(CN[C@H]4CC[C@H](C(F)(F)F)CC4)ccc3C2=O)C(=O)N1 (stereo partly drawn)
Satisfied

Hello, I'm reviewing records and need to know if DC50 of O=C1CCC(N2Cc3cc(CN[C@@H]4CCc5ccccc5C4)ccc3C2=O)C(=O)N1 (stereo partly drawn) is below 400 nM. Could you check?
Satisfied

State whether 400 nM exceeds DC50 recorded for O=C1CCC(N2Cc3cc(CNC4CCC5(CC4)CC5)ccc3C2=O)C(=O)N1 (stereo not drawn) .
Satisfied

Field: below-cutoff. Rule: recorded DC50 strictly less than 400 nM. Subject: O=C1CCC(N2Cc3cc(CN[C@H]4CCOc5ccccc54)ccc3C2=O)C(=O)N1 (stereo partly drawn)
Satisfied

Hello, is DC50 of the following molecule strictly smaller than 400 nM? O=C1CCC(N2Cc3cc(CNC4CCC(Oc5ccccc5)CC4)ccc3C2=O)C(=O)N1 (stereo not drawn)
Satisfied

Taken from patent US20240124412A1.
